Target: T1, GRIP1_7, Q9Y3R0
T1 sequence (Q9Y3R0 999-1096, limits assumed, looked up): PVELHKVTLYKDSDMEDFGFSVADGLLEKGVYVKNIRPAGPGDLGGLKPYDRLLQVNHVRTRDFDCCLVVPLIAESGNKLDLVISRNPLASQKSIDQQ
Assay: holdup assay
Set-up: key: below the threshold = too weak to quantify, mostly under pKd 3.1 to 4
Settings: plain residues with an end cap or a label only (N-terminal biotin on a linker: ttds)
Task for the reader: assign each of the following binders its reported pKd.
// no unit string in output, number only

Ask: Sample IDNDTESTAL [ARHGAP17, Q68EM7] — what was its pKd?
Reply: 3.51

Ask: Okay, and VLRLQSETSV [VANGL1, Q8TAA9] ?
Reply: 3.73
